Values were extracted from paper PMC10709440.

system_tested: Drosophila OR13a (Drosophila melanogaster, UniProt Q9VXL0)
Construct: expressed in transfected cells
Sequence (Q9VXL0 whole entry, one chain of several): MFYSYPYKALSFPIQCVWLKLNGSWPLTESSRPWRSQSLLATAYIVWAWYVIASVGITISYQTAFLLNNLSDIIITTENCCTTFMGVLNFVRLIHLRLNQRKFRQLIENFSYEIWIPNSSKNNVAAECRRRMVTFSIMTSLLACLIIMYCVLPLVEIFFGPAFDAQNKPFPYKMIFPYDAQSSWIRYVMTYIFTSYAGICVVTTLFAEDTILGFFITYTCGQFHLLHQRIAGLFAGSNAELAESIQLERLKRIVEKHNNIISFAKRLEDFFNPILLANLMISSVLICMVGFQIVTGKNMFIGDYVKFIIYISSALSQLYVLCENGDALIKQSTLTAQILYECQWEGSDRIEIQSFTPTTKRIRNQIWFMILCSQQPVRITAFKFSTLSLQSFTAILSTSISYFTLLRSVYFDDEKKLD
assay_procedure: Calcium ion fluorescence (GCaMP6) assay, OR13a stable HEK293 cell line
Assay type: cell-based
measurement_parameters: AVERAGE EC50, the 12th table; corresponds to average EC50, given with 95% confidence interval
measured_property: pEC50
Give bare numbers, as −log10 of the molar value.

Q: Returns the measured pEC50 for the input compound. Input: C=CC(O)CCCCC (stereo not shown) [1-octen-3-ol]
A: 5.84

====

system_tested: Drosophila OR85b (Drosophila melanogaster, UniProt Q9VHQ7)
Construct: expressed in transfected cells
Sequence (Q9VHQ7 1-390): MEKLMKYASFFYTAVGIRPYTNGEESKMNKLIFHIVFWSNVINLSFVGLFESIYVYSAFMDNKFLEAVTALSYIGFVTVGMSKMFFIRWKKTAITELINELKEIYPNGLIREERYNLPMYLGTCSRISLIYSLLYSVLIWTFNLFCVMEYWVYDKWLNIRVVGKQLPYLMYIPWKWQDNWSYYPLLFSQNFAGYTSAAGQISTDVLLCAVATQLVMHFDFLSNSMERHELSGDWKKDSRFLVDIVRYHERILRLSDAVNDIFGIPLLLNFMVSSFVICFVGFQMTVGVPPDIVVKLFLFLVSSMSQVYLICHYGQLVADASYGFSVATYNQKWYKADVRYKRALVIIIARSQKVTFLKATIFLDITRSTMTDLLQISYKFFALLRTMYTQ
Sequence (Q9VNB5 1-486 partner): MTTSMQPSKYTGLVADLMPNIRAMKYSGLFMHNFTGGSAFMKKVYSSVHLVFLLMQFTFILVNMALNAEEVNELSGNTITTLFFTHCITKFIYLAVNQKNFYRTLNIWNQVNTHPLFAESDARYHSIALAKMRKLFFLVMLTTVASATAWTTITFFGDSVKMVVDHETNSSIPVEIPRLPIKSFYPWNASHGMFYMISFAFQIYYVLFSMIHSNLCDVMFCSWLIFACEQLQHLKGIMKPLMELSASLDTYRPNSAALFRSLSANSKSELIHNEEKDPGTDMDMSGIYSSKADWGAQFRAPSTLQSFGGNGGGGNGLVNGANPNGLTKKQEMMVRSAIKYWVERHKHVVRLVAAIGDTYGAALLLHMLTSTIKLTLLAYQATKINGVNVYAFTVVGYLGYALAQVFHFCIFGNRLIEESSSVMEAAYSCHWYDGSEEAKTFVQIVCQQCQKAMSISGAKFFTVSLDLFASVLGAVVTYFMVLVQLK
assay_procedure: Calcium ion fluorescence (GCaMP6) assay, OR85b stable HEK293 cell line
Format: cell-based
measurement_parameters: EC50, OR85b cell line; fitted Hill equation, Hill coefficient constrained to 1, maximal response max 1
Procedure: These VUAA1 normalized ∆F values were used to compare the different receptors and ligands. The concentration-dependent effect of the reference ligands on their cognate cell lines was examined in more detail. Twelve different ligand concentrations were measured on each cell line in an overall 0.01 μM to 100 μM concentration range with 5 repetitions with three technical replicates each time. […]
measured_property: EC50 (µM)
Numbers only, in µM.

Q: Returns the measured EC50 for the input compound. Input: CCCCCC(C)=O [2-heptanone]
A: 68.9

====

system_tested: Drosophila OR47a (Drosophila melanogaster)
Construct: expressed in transfected cells
Sequence (P81921 1-385): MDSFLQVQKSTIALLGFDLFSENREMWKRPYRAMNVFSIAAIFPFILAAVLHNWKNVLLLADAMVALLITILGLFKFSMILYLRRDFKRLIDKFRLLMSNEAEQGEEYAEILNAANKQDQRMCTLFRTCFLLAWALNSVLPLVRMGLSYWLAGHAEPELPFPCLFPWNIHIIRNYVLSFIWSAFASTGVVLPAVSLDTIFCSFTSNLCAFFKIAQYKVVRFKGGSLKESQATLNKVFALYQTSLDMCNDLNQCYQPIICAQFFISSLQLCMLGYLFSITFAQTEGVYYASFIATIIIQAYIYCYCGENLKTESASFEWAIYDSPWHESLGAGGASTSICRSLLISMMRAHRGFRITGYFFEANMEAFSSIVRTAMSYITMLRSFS
Sequence (Q9VNB5 1-486 partner): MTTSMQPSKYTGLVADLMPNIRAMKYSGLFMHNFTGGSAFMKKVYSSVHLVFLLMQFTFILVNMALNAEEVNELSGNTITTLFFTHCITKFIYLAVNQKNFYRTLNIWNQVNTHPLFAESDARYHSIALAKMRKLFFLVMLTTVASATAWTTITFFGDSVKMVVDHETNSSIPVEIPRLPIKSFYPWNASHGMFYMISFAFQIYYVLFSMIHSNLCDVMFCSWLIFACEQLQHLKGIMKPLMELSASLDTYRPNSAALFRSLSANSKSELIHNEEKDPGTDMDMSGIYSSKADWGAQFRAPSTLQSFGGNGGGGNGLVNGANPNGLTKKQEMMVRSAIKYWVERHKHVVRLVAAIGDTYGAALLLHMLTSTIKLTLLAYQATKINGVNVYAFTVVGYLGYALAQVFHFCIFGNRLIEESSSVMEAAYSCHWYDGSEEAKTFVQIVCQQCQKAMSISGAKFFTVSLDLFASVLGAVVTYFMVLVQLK
assay_procedure: Calcium ion fluorescence (GCaMP6) assay, OR47a stable HEK293 cell line
Type: cell-based
measurement_parameters: OR47a cell line; odorant cc. 1 µM; mean of biological replicates
Assign Average response to each entry below.
Give bare numbers.

Count: 4. Required value per item: Average response.
1. CCCCCC(=O)CC
2. C=C1CC/C=C(\C)CC[C@@H]2[C@@H]1CC2(C)C [(-)-trans-caryophyllene]
3. C=CC(C)(O)CCC=C(C)C (stereo not shown)
4. CCCCCO

A:
1: 0.0745; 2: 0.0166; 3: 0.00; 4: 0.00

Count: 4. Required value per item: Average response.
1. C=C(C)[C@H]1CC=C(C)CC1 [limonene]
2. C=C(C)C1CCC2(C)OC2C1 (single isomer, unassigned; (+)) [(+)-limonene oxide]
3. CCCCCCCCCC=O
4. O=Cc1ccccc1

A:
[0.0214, 0.00, 0.00, 0.03]

Count: 3. Required value per item: Average response.
1. CC/C=C/CCO
2. CC1=CCC2C(C1)C2(C)C (stereo not shown)
3. CCCCCOC(C)=O [pentyl acetate]

A:
1: 0.06; 2: 0.00; 3: 0.41

Count: 2. Required value per item: Average response.
1. Cc1ccc(C)c(C)c1
2. CC1=CC[C@@H](C(C)(C)O)CC1

A:
1: 0.00; 2: 0.00

Count: 3. Required value per item: Average response.
1. CCCCCCCCC(CO)CCCCCC (stereo not shown)
2. COc1cccc(OC)c1
3. Cc1ccc(O)cc1

A:
0.00
0.00
0.10

Count: 6. Required value per item: Average response.
1. Cc1ccccc1C
2. CCOC(=O)CC [ethyl propionate]
3. OCCc1ccccc1
4. CC/C=C\CCOC(C)=O [z3-hexenyl acetate]
5. CC(=O)OCCC(C)C [isopentyl acetate]
6. C=CCc1ccc(O)c(OC)c1

A:
1: 0.00; 2: 0.00; 3: 0.0564; 4: 0.35; 5: 0.00; 6: 0.00

Count: 5. Required value per item: Average response.
1. COC(=O)c1ccccc1O [methyl salicylate]
2. CCOC(=O)c1ccccc1 [ethyl benzoate]
3. C=C1CCC2(C(C)C)CC12 (stereo not shown)
4. CC1=CCC2CC1C2(C)C (stereo not shown)
5. CCCC(=O)OCC [ethyl butyrate]

A:
1. 0.11
2. 0.0468
3. 0.00
4. 0.04
5. 0.00

Count: 6. Required value per item: Average response.
1. CCCCCC(C)=O
2. Cc1ccc(C)cc1
3. Cc1cccc(O)c1
4. CC/C=C\CCO
5. CCCCCCCCCCC
6. CC(=O)OCC(C)C [isobutyl acetate]

A:
1: 0.03; 2: 0.00; 3: 0.00; 4: 0.0266; 5: 0.00; 6: 0.19
